Assay: Plasma and brain pharmacokinetics/toxicokinetics in rats
Type: in vivo
Conditions: Sprague Dawley, rat, plasma; rats, oral, corn oil
test_readout: Tmax (h)
Write the number in h without appending the unit.

I would be grateful if you could share the reported Tmax for COc1ccc(CO[C@H]2CC[C@@]3(C)C(=CC[C@H]4[C@@H]5CC[C@H](C(C)=O)[C@@]5(C)CC[C@@H]43)C2)cc1 .
3

----------
Test: Plasma and brain pharmacokinetics/toxicokinetics in rats
Assay type: in vivo
Conditions: both sexes, Sprague Dawley SPF, rat, plasma, po, 20 mg/kg, rats po 20 mg/kg single, 91-day tox study
test_readout: AUC(0-t) (ng·h/mL)
Field format: number, assumed ng·h/mL, no unit text.

What measured AUC(0-t) goes with COc1ccc(CO[C@H]2CC[C@@]3(C)C(=CC[C@H]4[C@@H]5CC[C@H](C(C)=O)[C@@]5(C)CC[C@@H]43)C2)cc1 ?
12700

----------
Assay: Plasma pharmacokinetics/toxicokinetics in dogs (oral and i.v.)
Assay type: in vivo
Details: both sexes, Beagle, dog, po, 20 mg/kg, dogs po 20 mg/kg single, 91-day tox study
Procedure: For both conditions, animals were fasted overnight before dosing and up to approximately 2 h afterwards. […] For all studies in rats and the 91-d toxicity study in dogs, the timepoints on days 1, 28 and 91 were: before dose and 1, 3, 5, 8 and 24 h after dose. […] In both species, only mean pre-dose plasma concentrations were calculated on day 14 for the 28-d study and on day 28 for the 91-d study. […]
test_readout: AUC(0-t) (ng·h/mL)
Field format: number, assumed ng·h/mL, no unit text.

I would be grateful if you could share the reported AUC(0-t) for COc1ccc(CO[C@H]2CC[C@@]3(C)C(=CC[C@H]4[C@@H]5CC[C@H](C(C)=O)[C@@]5(C)CC[C@@H]43)C2)cc1 .
26500

----------
Assay: Plasma pharmacokinetics/toxicokinetics in dogs (oral and i.v.)
Format: in vivo
Conditions: both sexes, Beagle, dog, iv, 0.7 mg/kg, dogs i.v. 0.7 mg/kg
Experimental: For both conditions, animals were fasted overnight before dosing and up to approximately 2 h afterwards. […] For all studies in rats and the 91-d toxicity study in dogs, the timepoints on days 1, 28 and 91 were: before dose and 1, 3, 5, 8 and 24 h after dose. […] In both species, only mean pre-dose plasma concentrations were calculated on day 14 for the 28-d study and on day 28 for the 91-d study. […]
test_readout: AUC(0-t) (ng·h/mL)
Dear colleague, please return just the value in ng·h/mL, with no unit written.

Reported AUC(0-t) for COc1ccc(CO[C@H]2CC[C@@]3(C)C(=CC[C@H]4[C@@H]5CC[C@H](C(C)=O)[C@@]5(C)CC[C@@H]43)C2)cc1 : what is it?
2190

----------
Test: Plasma and brain pharmacokinetics of oral AEF0117 in mice
Type: in vivo
Conditions: both sexes, CD-1 Swiss, mouse, plasma; mice po 4 mg/kg single
test_readout: Cmax (ng/mL)
Lab book: enter the figure in ng/mL, no units written.

What does the data say about its Cmax? Entry: COc1ccc(CO[C@H]2CC[C@@]3(C)C(=CC[C@H]4[C@@H]5CC[C@H](C(C)=O)[C@@]5(C)CC[C@@H]43)C2)cc1 [AEF0117, 3β-(4-methoxybenzyloxy)pregn-5-en-20-one]
490

----------
Assay: Plasma and brain pharmacokinetics/toxicokinetics in rats
Format: in vivo
Conditions: both sexes, Sprague Dawley SPF, rat, plasma, po, 9 mg/kg, rats po 9 mg/kg single, 28-day tox study; read-out: t½ (converted)
Protocol: Blood samples were obtained from catheterized animals housed in Culex cages with an automated blood sampler—a robotic system designed to facilitate the sampling of whole blood from awake and freely moving rodents. […] For all studies in rats and the 91-d toxicity study in dogs, the timepoints on days 1, 28 and 91 were: before dose and 1, 3, 5, 8 and 24 h after dose. […] In both species, only mean pre-dose plasma concentrations were calculated on day 14 for the 28-d study and on day 28 for the 91-d study. […]
test_readout: half-life (h)
Unit h implied. Number only.

Fill in: half-life of COc1ccc(CO[C@H]2CC[C@@]3(C)C(=CC[C@H]4[C@@H]5CC[C@H](C(C)=O)[C@@]5(C)CC[C@@H]43)C2)cc1 is ___
11.7
